test: chemical genetic growth profiling, strain panel (AID 1159580);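 also: tested at 20 µM; growth read once vehicle control cultures reached saturation at 30 °C; 1 = growth at the plate median or of vehicle wells; lower values mean less growth of the strain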; conditions: S. cerevisiae deletion strains, growth OD, locus YDR069C, strain doa4, active compounds read low
About 2,000 (36%) of roughly 5,500 compounds were called active. Inconclusive results (about 18%) are left out. The list shows a part of the results.
READOUT_LABEL: normalized growth
I'd appreciate a reply containing only the number, no unit.

Examples with their reported normalized growth follow.
{"columns": ["SMILES_CODE", "READOUT_LABEL", "RECORDED_MEASUREMENT"],
 "data": [
  ["COc1ccc(C(=O)CC(=O)O)c2c1C=CC(C)(C)O2", "normalized growth", 0.984],
  ["CCN(CC)C(=O)N1CCN(C)CC1", "normalized growth", 0.976],
  ["CC1(C)S[C@@H]2[C@H](NC(=O)[C@H](N)c3ccccc3)C(=O)N2[C@H]1C(=O)O", "normalized growth", 0.965]
]}

Query: Give a short answer stating reported normalized growth for CCCCCCCCCCC[C@@H](C[C@H]1OC(=O)[C@H]1CCCCCC)OC(=O)[C@@H](CC(C)C)NC=O .
Reply: 1.02
